Attribution: the supplement of paper PMC7724964

Target: PLEK2 123-229 DEP (domain begin residue: 123, domain end residue: 229)
Test: phage ELISA signal ratio (GST-PRM binding over GST background); higher = stronger binding of peptide-phage to the PRM
measurement-type: phage ELISA signal ratio

1. YLTWWYDPDHPDWATV	6.35
2. WNWENVWGLDQTHPLW	3.15
3. WNWENVWWLDQTHPLW	10.1
4. EFEMDFWEMWNAWLSQ	14.9
5. PDFWWQQQMADIMQWR	21.4

Shift focus to the following entry.
**Q:** Reported phage ELISA signal ratio, binder `EIEPWWWDPHHENWAM` : ____
**A:** 7.12
